Parameter: EC50 in nM (mean); L929s + Act D cytotoxicity assay, human TNFa @ 0.5 ng/ml. Scope: all listed entries.
- tested_on: human TNFα (human, UniProt P01375 77-233)
- Sequence (P01375 77-233 limits assumed): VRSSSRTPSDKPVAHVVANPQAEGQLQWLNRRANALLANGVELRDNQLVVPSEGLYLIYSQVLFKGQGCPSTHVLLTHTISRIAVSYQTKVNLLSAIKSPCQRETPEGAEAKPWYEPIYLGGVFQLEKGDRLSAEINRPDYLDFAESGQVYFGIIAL
- measurement_description: cell-based or functional assay
assay_endpoint: EC50 in nM (mean); L929s + Act D cytotoxicity assay, human TNFa @ 0.5 ng/ml

binder	endpoint_value
TNF22 (TNF3 HUM3) (VHH) VHH: EVQLVESGGGLVQPGGSLRLSCAASGRSLSNYYMGWFRQAPGKGRELLGNISWRGYNIYYKDSVKGRFTISRDDSKNTIYLQMNSLKTEDTAVYYCAASILPLSDDPGWNTYWGQGTQVTVSS	0.303 nM
TNF23 (TNF3 HUM4) (VHH) VHH: EVQLVESGGGLVQPGGSLRLSCAASGRSLSNYYMGWFRQAPGKGRELLGNISWRGYNIYYKDSVKGRFTISRDDSKNTIYLQMNSLKPEDTAVYYCAASILPLSDDPGWNTYWGQGTLVTVSS	0.3 nM
TNF15 (TNF2 HUM1) (VHH, Humanised TNF2, first round) VHH: EVQLVESGGGLVQPGGSLRLSCAASGRTFSEPSGYTYTIGWFRQAPGKGREFVARIYWSSGLTYYADSVKGRFTISRDIAKNTVDLQMNSLKPEDTAVYYCAARDGIPTSRSVGSYNYWGQGTQVTVSS	5.9 nM
TNF20 (TNF3 HUM1) (VHH) VHH: EVQLVESGGGLVQPGGSLRLSCAASGRSLSNYYMGWFRQAPGKGRELLGNISWRGYNIYYKDSVKGRFTISRDDSKNTIYLQMNSLKPEDTAVYYCAASILPLSDDPGWNTYWGQGTQVTVSS	0.38 nM
TNF31 (TNF2 HUM1) (VHH, Humanised TNF2, second round; tags not restated) VHH: EVQLVESGGGLVQPGGSLRLSCAASGFTFSEPSGYTYTIGWFRQAPGKGREFVARIYWSSGLTYYADSVKGRFTISRDIAKNTVDLQMNSLRPEDTAVYYCAARDGIPTSRSVGSYNYWGQGTQVTVSS	2.19 nM
TNF17 (TNF2 HUM3) (VHH, Humanised TNF2, first round) VHH: EVQLVESGGGLVQPGGSLRLSCAASGRTFSEPSGYTYTIGWFRQAPGKGREFVARIYWSSGLTYYADSVKGRFTISRDNAKNTVDLQMNSLKPEDTAVYYCAARDGIPTSRSVGSYNYWGQGTQVTVSS	7.55 nM
TNF32 (TNF2 HUM2) (VHH, Humanised TNF2, second round; tags not restated) VHH: EVQLVESGGGLVQPGGSLRLSCAASGFTFSEPSGYTYTIGWFRQAPGKGREFVARIYWSSGLTYYADSVKGRFTISRDIAKNTVDLQMNSLRPEDTAVYYCAARDGIPTSRSVGSYNYWGQGTLVTVSS	2.51 nM
TNF16 (TNF2 HUM2) (VHH, Humanised TNF2, first round) VHH: EVQLVESGGGLVQPGGSLRLSCAASGFTFSEPSGYTYTIGWFRQAPGKGREFVARIYWSSGLTYYADSVKGRFTISRDIAKNTVDLQMNSLKPEDTAVYYCAARDGIPTSRSVGSYNYWGQGTQVTVSS	2.42 nM
